Tested on: MCF7
Experiment: Cytotoxicity against human MCF7 cells assessed as reduction in cell growth after 48 hrs by SRB assay
Assay type: functional
Conditions: MCF7, 48 h
readout type: GI50 (nM)

> print(dat)
                               record.smiles  system.under.test  inequality.sign  value.observed
 1  COc1cc(C(=O)c2c[nH]c3ccc(Cl)cc23)c(N)c(OC)c1OC               MCF7                =             321
 2  COc1cc(C(=O)c2c[nH]c3ccccc23)c(N)c(OC)c1OC               MCF7                =             900
 3  COC(=O)c1[nH]c2ccc(Br)cc2c1C(=O)c1cc(OC)c(OC)c(OC)c1N               MCF7                =             124
 4  COc1cc(C(=O)c2c[nH]c3ccc(C)cc23)c(N)c(OC)c1OC               MCF7                =           12400
 5  COc1cc(C(=O)c2c[nH]c3ccc(Br)cc23)c(N)c(OC)c1OC               MCF7                =             360
 6  COC(=O)c1[nH]c2ccc(OC)cc2c1C(=O)c1cc(OC)c(OC)c(OC)c1N               MCF7                =             102
 7  COc1ccc2[nH]cc(C(=O)c3cc(OC)c(OC)c(OC)c3N)c2c1               MCF7                =             528
 8  COC(=O)c1[nH]c2ccccc2c1C(=O)c1cc(OC)c(OC)c(OC)c1N               MCF7                =             193
 9  COc1ccc2c(Cc3cc(OC)c(OC)c(OC)c3N)c[nH]c2c1               MCF7                =            1830
10  COc1ccc2c(C(=O)c3cc(OC)c(OC)c(OC)c3N)c[nH]c2c1               MCF7                =              13
11  COc1cc2[nH]cc(C(=O)c3cc(OC)c(OC)c(OC)c3N)c2cc1OC               MCF7                =           38400
12  COC(=O)c1[nH]c2ccc(Cl)cc2c1C(=O)c1cc(OC)c(OC)c(OC)c1N               MCF7                =             171
13  CCOC(=O)c1[nH]c2ccc(Br)cc2c1C(=O)c1cc(OC)c(OC)c(OC)c1N               MCF7                =             425
14  CCOC(=O)c1[nH]c2ccccc2c1C(=O)c1cc(OC)c(OC)c(OC)c1N               MCF7                =             480
15  CCOC(=O)c1[nH]c2ccc(OC)cc2c1C(=O)c1cc(OC)c(OC)c(OC)c1N               MCF7                =             540
16  COc1cc(C(=O)c2c[nH]c3cccc(OC)c23)c(N)c(OC)c1OC               MCF7                >          100000
17  COc1ccc2[nH]cc(Cc3cc(OC)c(OC)c(OC)c3N)c2c1               MCF7                =           32800
18  CCOC(=O)c1[nH]c2ccc(Cl)cc2c1C(=O)c1cc(OC)c(OC)c(OC)c1N               MCF7                =             590
19  COc1cc(C(=O)c2c[nH]c3c(OC)cccc23)c(N)c(OC)c1OC               MCF7                =            9960
20  COc1cc(C(=O)c2c[nH]c3cc(F)ccc23)c(N)c(OC)c1OC               MCF7                =           42800
21    COc1ccc(/C=C\c2cc(OC)c(OC)c(OC)c2)cc1O               MCF7                =              25
22    COc1cc(Cc2c[nH]c3ccccc23)c(N)c(OC)c1OC               MCF7                =           45000
